Field: pNF. Provide a value for each of the compounds that follow.

Data request: Give pNF for CC[C@H]1OC(=O)CC(O)[C@H](C)[C@@H](O[C@@H]2O[C@H](C)C[C@H](N(C)C)[C@H]2O)[C@@H](CCN(C)CCCN(C)C(=O)[C@H](C)N)C[C@@H](C)C(=O)/C=C/C(C)=C/[C@@H]1C (stereo not given in full)
Data returned: 3.067

Data request: Annotate the compound CC[C@H]1OC(=O)CC(O)[C@H](C)[C@@H](O[C@@H]2O[C@H](C)C[C@H](N(C)C)[C@H]2O)[C@@H](CCNCCCN(C)C)C[C@@H](C)C(=O)/C=C/C(C)=C/[C@@H]1C (stereo not given in full) with its measured pNF.
Data returned: 4.887

Data request: Dear colleague, please send me the reported pNF for CC[C@H]1OC(=O)[C@H](C)[C@@H](O[C@H]2C[C@@](C)(OC)[C@@H](O)[C@H](C)O2)[C@H](C)[C@@H](O[C@@H]2O[C@H](C)C[C@H](N(C)C)[C@H]2O)[C@](C)(OC)C[C@@H](C)C(=O)[C@H](C)[C@@H](O)[C@]1(C)O [CLARITHROMYCIN] when you can.
Data returned: 1.601

Data request: Please report pNF for the following compound: CC[C@H]1OC(=O)CC(O)[C@H](C)[C@@H](O[C@@H]2O[C@H](C)C[C@H](N(C)C)[C@H]2O)[C@@H](CCNCC(C)(C)CO)C[C@@H](C)C(=O)/C=C/C(C)=C/[C@@H]1C (stereo not given in full)
Data returned: 3.481

Data request: Give the measured pNF for CC[C@H]1OC(=O)C[C@@H](O)[C@H](C)[C@@H](O[C@@H]2O[C@H](C)[C@@H](O[C@H]3C[C@@](C)(O)[C@@H](O)[C@H](C)O3)[C@H](N(C)C)[C@H]2O)[C@@H](CC=O)C[C@@H](C)C(=O)/C=C/C(C)=C/[C@@H]1CO[C@@H]1O[C@H](C)[C@@H](O)[C@@H](OC)[C@H]1OC [TYLOSIN]
Data returned: 0.497

* * *

Test: physchem
Description: Dissociation constant (pKa)
Please respond with reported pKa for every item in the list.
Returns: the value as a bare number; no unit string appended.

Data request: Identify measured pKa associated with CC[C@H]1OC(=O)C[C@@H](O)[C@H](C)[C@@H](O[C@@H]2O[C@H](C)C[C@H](N(C)C)[C@H]2O)[C@@H](CC=O)C[C@@H](C)C(=O)/C=C/[C@]2(C)O[C@H]2[C@@H]1C
Data returned: 8.79

Data request: Please report the measured pKa for CC[C@H]1OC(=O)CC(O)[C@H](C)[C@@H](O[C@@H]2O[C@H](C)C[C@H](N(C)C)[C@H]2O)[C@@H](CCN(C)CCN(C)C)C[C@@H](C)C(=O)/C=C/C(C)=C/[C@@H]1C (stereo not given in full)
Data returned: 5.61

Data request: Please look at this compound and report its pKa: CCC1OC(=O)CC(O)C(C)C(O[C@@H]2O[C@H](C)C[C@H](N(C)C)[C@H]2O)C(CC=O)CC(C)C(=O)/C=C/C(C)=C/C1C (stereo not given in full)
Data returned: 8.83

Data request: Item CO[C@@H]1[C@@H](O[C@@H]2O[C@H](C)[C@@H](O[C@H]3C[C@@](C)(O)[C@@H](OC(=O)CC(C)C)[C@H](C)O3)[C@H](N(C)C)[C@H]2O)[C@@H](CC=O)C[C@@H](C)C(=O)/C=C/[C@@H]2O[C@H]2C[C@@H](C)OC(=O)C[C@H]1OC(C)=O : provide pKa
Data returned: 7.61

Data request: Return the recorded pKa value; entry: CC[C@H]1OC(=O)CC(O)[C@H](C)[C@@H](O[C@@H]2O[C@H](C)C[C@H](N(C)C)[C@H]2O)[C@@H](CCNCC(C)(C)CO)C[C@@H](C)C(=O)/C=C/C(C)=C/[C@@H]1C (stereo not given in full)
Data returned: 8.53
